TARGET_OR_SYSTEM: T1, CRBN, Q96SW2;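 further: pooled lentiviral library of zinc finger degron-EGFP fusions in mCherry-positive Jurkat cells, FACS-sorted after compound exposure, with degron abundance counted by next-generation sequencing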
T1 chain: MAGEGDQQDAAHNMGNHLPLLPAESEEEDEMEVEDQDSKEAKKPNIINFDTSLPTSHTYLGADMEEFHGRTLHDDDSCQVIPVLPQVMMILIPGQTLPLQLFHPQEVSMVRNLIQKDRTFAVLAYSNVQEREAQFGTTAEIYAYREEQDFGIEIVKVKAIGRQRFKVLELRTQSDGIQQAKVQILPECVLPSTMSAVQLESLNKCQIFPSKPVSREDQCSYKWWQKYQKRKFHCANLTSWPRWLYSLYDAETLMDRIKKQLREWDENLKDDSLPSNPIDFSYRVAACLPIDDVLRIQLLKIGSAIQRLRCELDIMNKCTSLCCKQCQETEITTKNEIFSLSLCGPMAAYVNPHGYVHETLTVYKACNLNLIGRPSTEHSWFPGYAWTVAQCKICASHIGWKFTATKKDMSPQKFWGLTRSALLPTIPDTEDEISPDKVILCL
ASSAY_PROCEDURE: log2 fold change of degron read counts, EGFP-low vs EGFP+ sorted cells (limma voom), compound-induced degradation; higher = more compound-induced degradation of the degron-EGFP fusion; degrons are variants of IKZF1/3 zinc finger 2; compound dose not given here
REPORTED_CONDITIONS: Jurkat; 18 h; compound: thalidomide
Over roughly 8,300 sequences, “log2 fold change of degron read counts, EGFP-low vs EGFP+ sorted cells (limma voom), compound-induced degradation” has its median near -1.1; the highest 2% begin near 3.2. The sample as a whole holds a higher share of the highest values than the screen did.
Measured log2 fold change of degron read counts values are reported for all entries that follow.

QUERY_SEQUENCE	log2 fold change of degron read counts
FYCPQCGAAFTQKGNLLRHIKL [46F_47Y_49P_50Q_52G_53A_54A_55F_67L_, Q9UKT9]	-0.429
FCCPVCGAAFTQKGNLLRHIKL [46F_47C_49P_50V_52G_53A_54A_55F_67L_, Q9UKT9]	2.16
LWCEICGFRCTQKGNLLRHIKL [46L_47W_49E_50I_52G_53F_54R_55C_67L_, Q9UKT9]	1.8
FVCPQCGAAFTQKGNLLRHIKL [46F_47V_49P_50Q_52G_53A_54A_55F_67L_, Q9UKT9]	1.46
LYCEICGFRCTQKGNLLRHIKL [46L_47Y_49E_50I_52G_53F_54R_55C_67L_, Q9UKT9]	1.9
LSCEICGFRCTQKGNLLRHIKL [46L_47S_49E_50I_52G_53F_54R_55C_67L_, Q9UKT9]	1.83
LMCEICGFRCTQKGNLLRHIKL [46L_47M_49E_50I_52G_53F_54R_55C_67L_, Q9UKT9]	2.41

Cited source: the supplement of paper PMC12645437
